System: Mus musculus
Experiment: Toxicity in mouse P388 cells allografted BDF/1 mouse consecutively administered on day 1 to day 9 post challenge measured on day 5
Assay type: organism-based
READOUT_TYPE: LD10

STRUCTURE_NOTATION: CCc1cccc2c(NCCCCCCNc3c4ccccc4nc4c(CC)cccc34)c3ccccc3nc12
LD10: 16 mg/kg/day

STRUCTURE_NOTATION: COc1cccc2c(NCCCCCCCCNc3c4ccc([N+](=O)[O-])cc4nc4c(OC)cccc34)c3ccc([N+](=O)[O-])cc3nc12.Cl
LD10: > 20 mg/kg/day

STRUCTURE_NOTATION: COc1ccc2c(NCCCCCCNc3c4ccccc4nc4cc(OC)ccc34)c3ccccc3nc2c1
LD10: 9.5 mg/kg/day

STRUCTURE_NOTATION: CCCCOc1cccc2c(NCCCCCCCCNc3c4ccccc4nc4c(OCCCC)cccc34)c3ccccc3nc12
LD10: 7.6 mg/kg/day

STRUCTURE_NOTATION: Brc1ccc2c(NCCCCCCCCNc3c4ccccc4nc4cc(Br)ccc34)c3ccccc3nc2c1
LD10: > 20 mg/kg/day

STRUCTURE_NOTATION: COc1ccc2nc3ccccc3c(NCCCCCCNc3c4ccccc4nc4ccc(OC)cc34)c2c1
LD10: 8.6 mg/kg/day

STRUCTURE_NOTATION: COc1ccc2c(NCCCCCCCCNc3c4ccc(OC)cc4nc4cc([N+](=O)[O-])ccc34)c3ccc([N+](=O)[O-])cc3nc2c1
LD10: > 20 mg/kg/day

STRUCTURE_NOTATION: COc1ccc2c(NCCCCNc3c4ccccc4nc4cc(OC)ccc34)c3ccccc3nc2c1.Cl
LD10: > 20 mg/kg/day

INPUT: Kindly indicate its recorded LD10. Item: "CCc1cccc2c(NCCNc3c4ccccc4nc4c(CC)cccc34)c3ccccc3nc12"
OUTPUT: 16 mg/kg/day

INPUT: Kindly indicate its recorded LD10. Item: "CCc1cccc2c(NCCCCCCCCCCNc3c4ccccc4nc4c(CC)cccc34)c3ccccc3nc12"
OUTPUT: 13 mg/kg/day

INPUT: Kindly indicate its recorded LD10. Item: "COc1ccc2c(NCCNc3c4ccccc4nc4cc(OC)ccc34)c3ccccc3nc2c1.Cl"
OUTPUT: 7.2 mg/kg/day

INPUT: Kindly indicate its recorded LD10. Item: "c1ccc2c(NCCCCCCCNc3c4ccccc4nc4ccccc34)c3ccccc3nc2c1"
OUTPUT: 12.5 mg/kg/day

INPUT: Kindly indicate its recorded LD10. Item: "Cl.Nc1ccc2c(NCCCCCCCCNc3c4ccccc4nc4cc(N)ccc34)c3ccccc3nc2c1"
OUTPUT: > 20 mg/kg/day

INPUT: Kindly indicate its recorded LD10. Item: "c1ccc2c(NCCNc3c4ccccc4nc4ccccc34)c3ccccc3nc2c1"
OUTPUT: 4.3 mg/kg/day

INPUT: Kindly indicate its recorded LD10. Item: "CCCOc1ccc2c(NCCCCCCCCNc3c4ccccc4nc4cc(OCCC)ccc34)c3ccccc3nc2c1"
OUTPUT: 5.5 mg/kg/day

INPUT: Kindly indicate its recorded LD10. Item: "Cl.Nc1ccc2nc3ccccc3c(NCCCCCCCCNc3c4ccccc4nc4ccc(N)cc34)c2c1"
OUTPUT: > 20 mg/kg/day

* * *

Test system: Mus musculus
Experiment: Toxicity in mouse P388 cells allografted BDF/1 mouse consecutively administered on day 1 to day 9 post challenge measured on day 5
Type: organism-based
So basically: LD10 at 8 mg/kg/day or higher? That is Yes. Lower than 8 mg/kg/day? That is No.

These solved cases illustrate the format of a correct answer.
STRUCTURE_NOTATION: Clc1ccc2c(NCCCCCCCCNc3c4ccccc4nc4cc(Cl)ccc34)c3ccccc3nc2c1
ANSWER_LABEL: Yes

STRUCTURE_NOTATION: CCCCOc1cccc2c(NCCCCCCNc3c4ccccc4nc4c(OCCCC)cccc34)c3ccccc3nc12
ANSWER_LABEL: No

STRUCTURE_NOTATION: COc1cccc2c(NCCCCCCCCNc3c4ccccc4nc4c(OC)cccc34)c3ccccc3nc12
ANSWER_LABEL: Yes

STRUCTURE_NOTATION: COc1ccc2nc3ccccc3c(NCCCCCCCCNc3c4ccccc4nc4ccc(OC)cc34)c2c1
ANSWER_LABEL: No

STRUCTURE_NOTATION: CSc1cccc2c(NCCCCCCCCNc3c4ccccc4nc4c(SC)cccc34)c3ccccc3nc12
ANSWER_LABEL: Yes

STRUCTURE_NOTATION: COc1ccc2c(NCCCCCCCCNc3c4ccc(OC)cc4nc4ccc(Cl)cc34)c3cc(Cl)ccc3nc2c1
ANSWER_LABEL: No

STRUCTURE_NOTATION: COc1ccc2c(NCCCCCCCCNc3c4ccccc4nc4cc(OC)ccc34)c3ccccc3nc2c1
ANSWER_LABEL: Yes

STRUCTURE_NOTATION: CCc1cccc2c(NCCCCNc3c4ccccc4nc4c(CC)cccc34)c3ccccc3nc12
ANSWER_LABEL: No

STRUCTURE_NOTATION: c1ccc2c(NCCCCCCNc3c4ccccc4nc4ccccc34)c3ccccc3nc2c1
ANSWER_LABEL: Yes

STRUCTURE_NOTATION: CCCCOc1cccc2c(NCCNc3c4ccccc4nc4c(OCCCC)cccc34)c3ccccc3nc12
ANSWER_LABEL: Yes

INPUT: Exam item: decide whether the reported LD10 for "CCOc1cccc2c(NCCCCCCCCNc3c4ccccc4nc4c(OCC)cccc34)c3ccccc3nc12" is at least 8 mg/kg/day.
OUTPUT: Yes

INPUT: Exam item: decide whether the reported LD10 for "COc1ccc(C)c2c(NCCCCCCCCNc3c4ccccc4nc4c(OC)ccc(C)c34)c3ccccc3nc12.Cl" is at least 8 mg/kg/day.
OUTPUT: Yes

INPUT: Exam item: decide whether the reported LD10 for "O=[N+]([O-])c1ccc2c(NCCCCCCNc3c4ccccc4nc4cc([N+](=O)[O-])ccc34)c3ccccc3nc2c1" is at least 8 mg/kg/day.
OUTPUT: Yes

INPUT: Exam item: decide whether the reported LD10 for "O=[N+]([O-])c1ccc2c(NCCCCCCCCNc3c4ccccc4nc4cc([N+](=O)[O-])ccc34)c3ccccc3nc2c1" is at least 8 mg/kg/day.
OUTPUT: Yes

INPUT: Exam item: decide whether the reported LD10 for "c1ccc2c(NCCCCCCCCCCCCNc3c4ccccc4nc4ccccc34)c3ccccc3nc2c1" is at least 8 mg/kg/day.
OUTPUT: No

INPUT: Exam item: decide whether the reported LD10 for "CCc1cccc2c(NCCCCCCCCNc3c4ccccc4nc4c(CC)cccc34)c3ccccc3nc12" is at least 8 mg/kg/day.
OUTPUT: Yes

* * *

Test system: Mus musculus
Test: Toxicity in mouse P388 cells allografted BDF/1 mouse consecutively administered on day 1 to day 9 post challenge measured on day 5
Format: organism-based
Measured LD10, listed per entry for reference.
Respond with the bare value in mg/kg/day.

STRUCTURE_NOTATION: c1ccc2c(NCCCCCCCCNc3c4ccccc4nc4ccccc34)c3ccccc3nc2c1
LD10 (mg/kg/day): 13.5
--
STRUCTURE_NOTATION: c1ccc2c(NCCCCCCCCCCNc3c4ccccc4nc4ccccc34)c3ccccc3nc2c1
LD10 (mg/kg/day): 7

INPUT: Give measured LD10 for "Cc1ccc2c(NCCCCCCCCNc3c4ccccc4nc4cc(C)ccc34)c3ccccc3nc2c1.Cl" (Mus musculus).
OUTPUT: 7.3

INPUT: Give measured LD10 for "CCCOc1cccc2c(NCCCCNc3c4ccccc4nc4c(OCCC)cccc34)c3ccccc3nc12.Cl" (Mus musculus).
OUTPUT: 9.8

INPUT: Give measured LD10 for "c1ccc2c(NCCCCCNc3c4ccccc4nc4ccccc34)c3ccccc3nc2c1" (Mus musculus).
OUTPUT: 12.5

INPUT: Give measured LD10 for "COc1ccc2c(NCCCCCCCCNc3c4ccc(OC)cc4nc4c(OC)cccc34)c3cccc(OC)c3nc2c1" (Mus musculus).
OUTPUT: 13

INPUT: Give measured LD10 for "COc1cccc2c(NCCCCCCNc3c4ccccc4nc4c(OC)cccc34)c3ccccc3nc12" (Mus musculus).
OUTPUT: 12.5

INPUT: Give measured LD10 for "CSc1ccc2c(NCCCCCCCCNc3c4ccccc4nc4cc(SC)ccc34)c3ccccc3nc2c1.Cl" (Mus musculus).
OUTPUT: 8

INPUT: Give measured LD10 for "CCCOc1ccc2c(NCCCCCCNc3c4ccccc4nc4cc(OCCC)ccc34)c3ccccc3nc2c1" (Mus musculus).
OUTPUT: 6.8

INPUT: Give measured LD10 for "c1ccc2c(NCCCCNc3c4ccccc4nc4ccccc34)c3ccccc3nc2c1" (Mus musculus).
OUTPUT: 11

* * *

System: Mus musculus
Assay: Toxicity in mouse P388 cells allografted BDF/1 mouse consecutively administered on day 1 to day 9 post challenge measured on day 5
Assay type: organism-based
READOUT_TYPE: LD10

STRUCTURE_NOTATION: Cl.Nc1ccc2c(NCCCCCCNc3c4ccccc4nc4cc(N)ccc34)c3ccccc3nc2c1
TARGET_SYSTEM: Mus musculus
LD10: > 20 mg/kg/day
//
STRUCTURE_NOTATION: COc1ccc2c(NCCCCCCCCNc3c4ccc(Cl)cc4nc4cc(OC)ccc34)c3ccc(Cl)cc3nc2c1.Cl
TARGET_SYSTEM: Mus musculus
LD10: > 20 mg/kg/day

Below: the item to evaluate.
INPUT: Kindly indicate its recorded LD10. Item: "COc1ccc2nc3cc(Cl)ccc3c(NCCCCCCCCNc3c4ccc(Cl)cc4nc4ccc(OC)cc34)c2c1"
OUTPUT: > 20 mg/kg/day
